IC50: recorded values
# Experimental system: human MR (GAL4-MR chimera, amino acids 671 to 984) (Homo sapiens, UniProt P08235)
# Sequence (P08235 671-984, change not shown): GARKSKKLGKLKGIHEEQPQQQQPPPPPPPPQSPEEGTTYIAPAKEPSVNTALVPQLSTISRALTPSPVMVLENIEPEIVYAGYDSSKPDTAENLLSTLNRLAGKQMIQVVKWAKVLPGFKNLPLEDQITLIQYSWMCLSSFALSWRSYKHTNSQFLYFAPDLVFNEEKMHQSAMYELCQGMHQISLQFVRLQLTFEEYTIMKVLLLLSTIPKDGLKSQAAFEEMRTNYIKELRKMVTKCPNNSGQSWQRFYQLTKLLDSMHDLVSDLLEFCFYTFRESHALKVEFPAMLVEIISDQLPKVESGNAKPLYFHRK
Measure: IC50

* Cc1cc(C(=O)NCc2ccc(Oc3ccccc3)cc2)c(C)n1-c1ccccc1C(F)(F)F | 1000 to 5000 nM
* Cc1cc(C(=O)NCCc2cccs2)c(C)n1-c1ccccc1C(F)(F)F | 500 to 1000 nM
* Cc1cc(C(=O)NCCc2ccccc2)c(C)n1-c1ccccc1C(F)(F)F | < 500 nM

* * *

# Protocol details: Kinetic solubility assay
# Run conditions: pH 7.4, aqueous buffer, kinetic from dmso stock
Measure: solubility kinetic at 1.5 h

* C[C@]12CC[C@H]3[C@@H](CCC4=CC(=O)CC[C@@]43C)[C@@H]1CC[C@@H]2O | ~330 µM
